tested on: NCI-H23 lung; experiment: NCI-60 one-dose screen, 48 h; conditions: 10 µM unless noted
About 83,000 compounds went through this panel and 20% of them were active in at least one assay; those are over-represented in the sample as a whole. Active and inactive are the calls of the source. Rule for the calls: active = growth percent below 10; inactive = the rest.
Please reply with one of these outcomes: active, inactive

Some entries whose results are on file:
[[record]]
molecule = "CC1=C(C)C(=O)C(C(C)C2=C(C)C(=O)C(C)=C(C)C2=O)=C(C)C1=O"
system_under_test = "NCI-H23 lung"
assigned_category = "inactive"

[[record]]
molecule = "CCOC(=O)C1=C(C(F)(F)F)NC(=S)NC1CN1C(=O)c2ccccc2C1=O (stereo unspecified)"
system_under_test = "NCI-H23 lung"
assigned_category = "inactive"

[[record]]
molecule = "Cc1ncc(C(=O)Nc2ccc(CN3CCN(C)CC3)c(C(F)(F)F)c2)cc1C#Cc1c(N)ncc2ccccc12"
system_under_test = "NCI-H23 lung"
assigned_category = "active"

[[record]]
molecule = "CCCCCCCCCCCCCCCCCC(=O)Nc1ccc(O)cc1"
system_under_test = "NCI-H23 lung"
assigned_category = "inactive"

[[record]]
molecule = "CC([C@H]1CC=C2C3CCC4=C[C@@H](N(C)C)CC[C@]4(C)C3CC[C@@]21C)N(C)C (stereo partly specified)"
system_under_test = "NCI-H23 lung"
assigned_category = "inactive"

[[record]]
molecule = "Cc1nn(-c2ccccc2)c(N)c1N=C1NC(=O)/C(=C/c2ccc(Cl)cc2)S1"
system_under_test = "NCI-H23 lung"
assigned_category = "inactive"

[[record]]
molecule = "COc1ccccc1C(=O)Nc1cccc(-c2cc(=O)c3c(OC)c(OC)c(OC)cc3o2)c1"
system_under_test = "NCI-H23 lung"
assigned_category = "inactive"

[[record]]
molecule = "COc1ccc(C2C3(C#N)C(N)=NC(=C(C#N)C#N)C23C#N)cc1OC (stereo unspecified)"
system_under_test = "NCI-H23 lung"
assigned_category = "inactive"


What classification did `COC(=O)c1ccc2[nH]c(O)c(C(=Nc3ccc(N(C)C(=O)CN4CCN(C)CC4)cc3)c3ccc([N+](=O)[O-])cc3)c2c1` end up with in this test?
inactive

// return assay outcome for C/C=C(/C)C(=O)OC1C=C(CO)C(=O)C(OC(=O)C(C)(O)C(C)Cl)C1C(C)C (stereo unspecified)
active

Lab log entry: CC(C)OCC1CO1 (stereo unspecified) — outcome as called in the assay?
inactive

Fill in: this test's call for `CCC(C)(C)c1ccc(OCCCCCCN2CCN(c3ccc(C)c(Cl)c3)CC2)cc1` is ___
inactive

Kindly provide the recorded test outcome for the following molecule: `CC(=O)Nc1nc(C)c(C(=O)N/N=C/c2cccs2)s1`
inactive

Recorded call for `COc1ccc(-c2nnc(SCC(=O)Nc3ccc(C(=O)/C=C/c4cc(OC)c(OC)c(OC)c4)cc3)n2-c2ccccc2)cc1OC` ?
active

Per the records of this test, what outcome belongs to `Nc1cc2c(cc1Br)[nH]c(=O)c1ccccc12` ?
inactive

Assay outcome for `CCCCCCCCC/C(=N\NC(=O)c1ccncc1)c1ccc(O)c(O)c1O` : what was it?
inactive

Call for entry `CC(C)(CNC1CCCCC1)OC(=O)c1ccccc1` :
inactive

What did this assay record as the result for `CCCNC(=O)Oc1ccc(/C(=C(/CC)Cc2ccccc2)c2ccc(OCCN(CC)CC)cc2)cc1` ?
inactive

Outcome? `O=C1C=C(OCC=C(C(F)(F)F)C(F)(F)F)c2ccccc2C1=O`
inactive

Dear colleague, could you share the recorded outcome for `COc1cc2ncnc(Nc3ccc4c(cnn4C(=O)Nc4ccccc4)c3)c2cc1OC` when you have a moment?
inactive

Lab log entry: `CNc1ccc(Nc2ccc(S(=O)(=O)O)cc2)c2c1C(=O)c1ccccc1C2=O` — outcome as called in the assay?
inactive

Query: recorded result category for CC(CCN1CCN(CCC(C)CC(C)(C)C)C1CC(C)CC(C)(C)C)CC(C)(C)C (stereo unspecified) in this test
inactive

Could you check what this test reported for `N/C(=N\O)c1ccncc1` ?
inactive
